tested on: AMO-1 human multiple myeloma tumor cell line; experiment: AMO-1 cell viability assay (CellTiter-Glo, 24 hours); format: cell-based; conditions: Homo sapiens, AMO1, 24 h, read-out: AMO-1 Viability IC50 (μM, 10% FBS), 10% FBS, 24 hours of compound treatment
Measurement type: IC50 (µM)
Express it in µM; write the number only.

Look over these answered cases.
# Molecule, Tested system, Measurement type, Observed measurement
measured = [
    ("Cc1c(Cl)c2c(Cl)c(C)c1-c1c(-c3ccc(F)cc3)sc3ncnc(c13)O[C@@H](C(=O)O)Cc1cc(ccc1OCc1ccnc(-c3cccc(CN4CCS(=O)(=O)CC4)c3)n1)OC[C@@H](CN1CCN(C)CC1)O2", "AMO-1 human multiple myeloma tumor cell line", "IC50", 0.000205),
    ("Cc1c2ccc(c1Cl)O[C@H](CN1CCN(C)CC1)COc1ccc(OCc3ccnc(-c4ccc(CCC(=O)O)cc4)n3)c(c1)C[C@H](C(=O)O)Oc1ncnc3sc(-c4ccc(F)cc4)c-2c13 (atropisomer, axis not shown)", "AMO-1 human multiple myeloma tumor cell line", "IC50", 0.0155),
    ("Cc1c(Cl)c2c(Cl)c(C)c1-c1c(-c3ccc(F)cc3)sc3ncnc(c13)O[C@@H](C(=O)O)Cc1cc(ccc1OCc1ccnc(C3(COCCOC[C@H]4COCCO4)CCCCC3)n1)OC[C@@H](CN1CCN(C)CC1)O2", "AMO-1 human multiple myeloma tumor cell line", "IC50", 0.00029),
    ("Cc1c(Cl)c2c(Cl)c(C)c1-c1c(-c3ccc(F)cc3)sc3ncnc(c13)O[C@@H](C(=O)O)Cc1cc(ccc1OCc1ccnc([C@@H]3CN4CCC[C@H]4CO3)n1)OC[C@@H](CN1CCN(C)CC1)O2", "AMO-1 human multiple myeloma tumor cell line", "IC50", 0.00151),
    ("Cc1c(Cl)c2c(Cl)c(C)c1-c1c(-c3ccc(F)cc3)sc3ncnc(c13)O[C@@H](C(=O)O)Cc1cc(ccc1OCc1ccnc(-c3ccc(CN4CCOCC4)cc3)n1)OC[C@@H](CN1CCN(C)CC1)O2", "AMO-1 human multiple myeloma tumor cell line", "IC50", 0.00018),
    ("COCCOCCOCCOCCOCCOCCOC1(c2nccc(COc3ccc4cc3C[C@H](C(=O)O)Oc3ncnc5sc(-c6ccc(F)cc6)c(c35)-c3c(C)c(Cl)c(c(Cl)c3C)O[C@H](CN3CCN(C)CC3)CO4)n2)CCCC1", "AMO-1 human multiple myeloma tumor cell line", "IC50", 0.00153),
    ("Cc1c(Cl)c2c(Cl)c(C)c1-c1c(-c3ccc(F)cc3)sc3ncnc(c13)O[C@@H](C(=O)O)Cc1cc(ccc1OCc1ccnc([C@H]3CC[C@H](OCCOCC4COCCO4)CC3)n1)OC[C@@H](CN1CCN(C)CC1)O2 (stereo partly drawn)", "AMO-1 human multiple myeloma tumor cell line", "IC50", 0.000223),
]

Query block: Write down IC50 measured for item "Cc1c(Cl)c2c(Cl)c(C)c1-c1c(-c3ccc(F)cc3)sc3ncnc(c13)O[C@@H](C(=O)O)Cc1cc(ccc1OCc1ccnc(N3CCS(=O)(=O)CC3)n1)OC[C@@H](CN1CCN(C)CC1)O2"
Result block: 0.00386

====

molecular target: GST-MCL-1 (Homo sapiens, UniProt Q07820); test: TR-FRET MCL-1 binding assay (competition with probe F-Bak); conditions: without HS; read-out: MCL-1 Binding Ki
Sequence (Q07820 whole entry): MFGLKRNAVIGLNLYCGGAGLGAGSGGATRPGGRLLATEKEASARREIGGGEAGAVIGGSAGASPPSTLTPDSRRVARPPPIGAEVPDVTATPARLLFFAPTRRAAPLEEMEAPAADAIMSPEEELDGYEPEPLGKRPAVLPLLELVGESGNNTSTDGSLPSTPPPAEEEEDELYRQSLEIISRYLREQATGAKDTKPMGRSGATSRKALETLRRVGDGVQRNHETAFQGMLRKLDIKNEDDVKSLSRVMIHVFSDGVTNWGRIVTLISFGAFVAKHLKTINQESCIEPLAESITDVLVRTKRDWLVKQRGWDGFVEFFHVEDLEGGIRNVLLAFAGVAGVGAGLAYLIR
Listed below: pKi values for each entry.
Convention used: pKi is expressed as -log10 of the molar concentration.

Look over these answered cases.
# Molecule, pKi
measured = [
    ("Cc1c(Cl)c2c(Cl)c(C)c1-c1c(-c3ccc(F)cc3)sc3ncnc(c13)O[C@@H](C(=O)O)Cc1cc(ccc1OCc1ccnc(-c3ccc(OCCN4CC5CCC(C4)O5)cc3)n1)OC[C@@H](CN1CCN(C)CC1)O2 [Example 170]", 10.38),
    ("Cc1c(Cl)c2c(Cl)c(C)c1-c1c(-c3ccc(F)cc3)sc3ncnc(c13)O[C@@H](C(=O)O)Cc1cc(ccc1OCc1ccnc(-c3cccc(CN4CCS(=O)(=O)CC4)c3)n1)OC[C@@H](CN1CCN(C)CC1)O2 [Example 117]", 10.60),
    ("COCCOCCOCCOCCOCCOCCOCCOc1ccc(-c2nccc(COc3ccc4cc3C[C@H](C(=O)O)Oc3ncnc5sc(-c6ccc(F)cc6)c(c35)-c3c(C)c(Cl)c(c(Cl)c3C)O[C@H](CN3CCN(C)CC3)CO4)n2)cc1 [Example 54]", 10.60),
]

Now turn to the next molecule.
Query block: Write down pKi measured for item Cc1c(Cl)c2c(Cl)c(C)c1-c1c(-c3ccc(F)cc3)sc3ncnc(c13)O[C@@H](C(=O)O)Cc1cc(ccc1OCc1ccnc([C@@]3(O)CCCC[C@@H]3O)n1)OC[C@@H](CN1CCN(C)CC1)O2 [Example 38]
Result block: 9.97

src = patent US20250313572A1
